experiment: cells; conditions: Homo sapiens, A875, 72 h
Quantity measured: pIC50
Keep in mind that pIC50 stands for -log10 of concentration in molar terms.

Example cases with answers are listed next.
Structure notation	Quantity measured	Quantitative result
CN[C@@H](C)C(=O)N[C@H](C(=O)N1C[C@H]2CCCCOc3ccc(cc3)C[C@@H](C(=O)NS(=O)(=O)C3CC3)NC(=O)[C@H](Cc3ccc4ccccc4c3)NC(=O)[C@@H]3C[C@H](CCCCOc4ccc(cc4)C[C@@H](C(=O)O)NC(=O)[C@H](Cc4ccc5ccccc5c4)NC(=O)[C@@H]1C2)CN3C(=O)[C@@H](NC(=O)[C@H](C)NC)C(C)(C)C)C(C)(C)C	pIC50	7.82
CN[C@@H](C)C(=O)N[C@H](C(=O)N1C[C@H]2C/C=C/COc3ccc(cc3)C[C@@H](C(=O)O)NC(=O)[C@H](Cc3ccc4ccccc4c3)NC(=O)[C@@H]3C[C@@H](CN3C(=O)[C@@H](NC(=O)[C@H](C)NC)C(C)(C)C)n3cc(nn3)COc3ccc(cc3)C[C@@H](NS(=O)(=O)C3CC3)NC(=O)[C@H](Cc3ccc4ccccc4c3)NC(=O)[C@@H]1C2)C(C)(C)C	pIC50	7.29
CN[C@@H](C)C(=O)N[C@H](C(=O)N1C[C@H]2C/C=C/COc3ccc(cc3)C[C@@H](C(=O)NS(=O)(=O)C3CC3)NC(=O)[C@H](Cc3ccc4ccccc4c3)NC(=O)[C@@H]3C[C@H](C/C=C/COc4ccc(cc4)C[C@@H](C(=O)O)NC(=O)[C@H](Cc4ccc5ccccc5c4)NC(=O)[C@@H]1C2)CN3C(=O)[C@@H](NC(=O)[C@H](C)NC)C(C)(C)C)C(C)(C)C	pIC50	7.64
CN[C@@H](C)C(=O)N[C@H](C(=O)N1C[C@@H]2C[C@H]1C(=O)N[C@@H](Cc1ccc3ccccc3c1)C(=O)N[C@H](C(=O)OC)Cc1ccc(cc1)OCc1cn(nn1)[C@H]1C[C@@H](C(=O)N[C@@H](Cc3ccc4ccccc4c3)C(=O)N[C@H](C(=O)OC)Cc3ccc(cc3)OCc3cn2nn3)N(C(=O)[C@@H](NC(=O)[C@H](C)NC)C(C)(C)C)C1)C(C)(C)C	pIC50	6.16

Pending molecule:
So what's the measured pIC50 for this one? `CN[C@@H](C)C(=O)N[C@H](C(=O)N1C[C@@H]2C[C@H]1C(=O)N[C@@H](Cc1ccc3ccccc3c1)C(=O)N[C@H](NS(=O)(=O)C1CC1)Cc1ccc(cc1)OCc1cn(nn1)[C@H]1C[C@@H](C(=O)N[C@@H](Cc3ccc4ccccc4c3)C(=O)N[C@H](NS(=O)(=O)C3CC3)Cc3ccc(cc3)OCc3cn2nn3)N(C(=O)[C@@H](NC(=O)[C@H](C)NC)C(C)(C)C)C1)C(C)(C)C`
7.10

====

Recorded measurements of Vd, one per entry
experiment: in vivo; details: Balb/C, mouse, iv, 1 mg/kg
Hi! Could you send only the number? It should be in L/kg, unit omitted.

Structure notation	Quantity measured	Quantitative result
CN[C@@H](C)C(=O)N[C@H](C(=O)N1C[C@@H]2C[C@H]1C(=O)N[C@@H](Cc1ccc3ccccc3c1)C(=O)N[C@H](NS(=O)(=O)C1CC1)Cc1ccc(cc1)OCc1cn(nn1)[C@H]1C[C@@H](C(=O)N[C@@H](Cc3ccc4ccccc4c3)C(=O)N[C@H](C(=O)O)Cc3ccc(cc3)OCc3cn2nn3)N(C(=O)[C@@H](NC(=O)[C@H](C)NC)C(C)(C)C)C1)C(C)(C)C	Vd	0.1

Query (compound): `CN[C@@H](C)C(=O)N[C@H](C(=O)N1C[C@@H]2C[C@H]1C(=O)N[C@@H](Cc1ccc3ccccc3c1)C(=O)N[C@H](NS(=O)(=O)C1CC1)Cc1ccc(cc1)OCc1cn(nn1)[C@H]1C[C@@H](C(=O)N[C@@H](Cc3ccc4ccccc4c3)C(=O)N[C@H](NS(=O)(=O)C3CC3)Cc3ccc(cc3)OCc3cn2nn3)N(C(=O)[C@@H](NC(=O)[C@H](C)NC)C(C)(C)C)C1)C(C)(C)C` ; field requested: Vd
0.3

What would you report for `CN[C@@H](C)C(=O)N[C@H](C(=O)N1C[C@@H]2C[C@H]1C(=O)N[C@@H](Cc1ccc3ccccc3c1)C(=O)N[C@H](C(=O)O)Cc1ccc(cc1)OCc1cn(nn1)[C@H]1C[C@@H](C(=O)N[C@@H](Cc3ccc4ccccc4c3)C(=O)N[C@H](C(=O)O)Cc3ccc(cc3)OCc3cn2nn3)N(C(=O)[C@@H](NC(=O)[C@H](C)NC)C(C)(C)C)C1)C(C)(C)C` ?
0.3
